Test system: Raji
PROCEDURE TEXT: Inhibition of TPA-induced EBV-early antigen activation in human Raji cells assessed as EA activation at 100 molar ratio after 48 hrs relative to control
Assay type: cell-based
PARTICULARS: human gammaherpesvirus 4
MEASURE: EA activation relative to control (%)

STRUCTURE SMILES	MEASURE	READOUT UNIT	ASSAY RESULT
CO[C@@H]1CC[C@@]2(C)[C@@H](CC[C@@]3(C)C[C@]45CC[C@@H]6C(C)(C)[C@H](OC(=O)CC(C)(C)C(=O)O)CC[C@@]6(C)[C@@]4(CC[C@@H]32)O5)C1(C)C	EA activation relative to control	%	68.4
CO[C@H]1CC[C@@]2(C)[C@@H](CC[C@@]3(C)CC4=CC[C@H]5C(C)(C)[C@H](OC(=O)CC(C)(C)C(=O)O)CC[C@]5(C)[C@H]4CC[C@@H]32)C1(C)C	EA activation relative to control	%	67
COc1c(O)cc(C(=O)O[C@@H]2CC[C@]3(C)[C@H]4CC[C@H]5[C@@](C)(CC[C@H]6C(C)(C)[C@@H](OC)CC[C@@]65C)CC4=CC[C@H]3C2(C)C)cc1O	EA activation relative to control	%	72.5
